Test system: PXR homodimer (NR concentration 270 nM)
Experiment: PBM binding z-score (relative to random genomic background probes); higher = stronger binding; sequences stand for … in GC…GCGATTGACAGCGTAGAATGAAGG
Metric Name: PBM binding z-score
Form field (numeric): enter value without unit.

{"Sequence Content": "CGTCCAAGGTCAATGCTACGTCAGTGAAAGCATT", "Target Or Test System": "PXR homodimer (NR concentration 270 nM)", "PBM binding z-score": 0.586}
{"Sequence Content": "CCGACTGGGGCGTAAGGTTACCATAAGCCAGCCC", "Target Or Test System": "PXR homodimer (NR concentration 270 nM)", "PBM binding z-score": -0.391}
{"Sequence Content": "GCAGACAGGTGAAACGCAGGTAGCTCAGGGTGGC", "Target Or Test System": "PXR homodimer (NR concentration 270 nM)", "PBM binding z-score": -0.785}
{"Sequence Content": "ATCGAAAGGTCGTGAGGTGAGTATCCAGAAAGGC", "Target Or Test System": "PXR homodimer (NR concentration 270 nM)", "PBM binding z-score": 0.135}
{"Sequence Content": "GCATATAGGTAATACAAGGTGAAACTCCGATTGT", "Target Or Test System": "PXR homodimer (NR concentration 270 nM)", "PBM binding z-score": -0.379}
{"Sequence Content": "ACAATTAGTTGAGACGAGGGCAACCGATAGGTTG", "Target Or Test System": "PXR homodimer (NR concentration 270 nM)", "PBM binding z-score": 0.711}
{"Sequence Content": "GCAGCTAGGTCAGGTTGGTCAGCTAACGGGTACG", "Target Or Test System": "PXR homodimer (NR concentration 270 nM)", "PBM binding z-score": -0.615}
{"Sequence Content": "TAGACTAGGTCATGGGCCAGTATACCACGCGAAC", "Target Or Test System": "PXR homodimer (NR concentration 270 nM)", "PBM binding z-score": 0.462}

// PBM binding z-score value for `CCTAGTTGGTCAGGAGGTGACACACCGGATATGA` : 0.895

// PBM binding z-score value for `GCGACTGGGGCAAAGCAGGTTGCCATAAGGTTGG` : -0.521

// PBM binding z-score value for `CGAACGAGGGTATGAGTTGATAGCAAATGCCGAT` : 0.0824

// PBM binding z-score value for `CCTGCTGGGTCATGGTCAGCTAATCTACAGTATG` : -0.638

---

Test system: RARg:RXRa (NR concentration 270 nM, RXRa partner concentration 90 nM)
Test: PBM binding z-score (relative to random genomic background probes); higher = stronger binding; sequences stand for … in GC…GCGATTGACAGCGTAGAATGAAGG
Metric Name: PBM binding z-score
Form field (numeric): enter value without unit.

Previously resolved entries follow.
{"Sequence Content": "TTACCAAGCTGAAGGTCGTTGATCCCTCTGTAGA", "PBM binding z-score": 0.152}
{"Sequence Content": "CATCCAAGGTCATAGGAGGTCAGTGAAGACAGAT", "PBM binding z-score": 7.02}
{"Sequence Content": "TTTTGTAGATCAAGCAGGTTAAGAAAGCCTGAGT", "PBM binding z-score": -0.111}
{"Sequence Content": "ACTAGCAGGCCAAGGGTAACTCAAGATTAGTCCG", "PBM binding z-score": 0.469}
{"Sequence Content": "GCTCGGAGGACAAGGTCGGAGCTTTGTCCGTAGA", "PBM binding z-score": 0.842}

# next sequence below
// PBM binding z-score value for `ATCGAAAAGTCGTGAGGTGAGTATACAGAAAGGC` : 0.561

---

Test system: PPARg:RXRa 30nM:10nM, anti-RXR (NR concentration 30 nM, RXRa partner concentration 10 nM)
Test: PBM binding z-score (relative to random genomic background probes); higher = stronger binding; sequences stand for … in GC…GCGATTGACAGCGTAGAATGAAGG
Metric Name: PBM binding z-score
Form field (numeric): enter value without unit.

Previously resolved entries follow.
{"Sequence Content": "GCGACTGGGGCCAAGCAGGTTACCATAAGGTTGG", "PBM binding z-score": -0.91}
{"Sequence Content": "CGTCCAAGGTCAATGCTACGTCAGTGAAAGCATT", "PBM binding z-score": 1.44}
{"Sequence Content": "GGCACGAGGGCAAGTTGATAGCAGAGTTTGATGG", "PBM binding z-score": -0.291}
{"Sequence Content": "GCTAGCAGGCCATTTAGGTCACTCAATGACGGGC", "PBM binding z-score": -0.134}
{"Sequence Content": "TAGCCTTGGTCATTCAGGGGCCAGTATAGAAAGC", "PBM binding z-score": -0.509}

// PBM binding z-score value for `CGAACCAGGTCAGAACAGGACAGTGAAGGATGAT` : 0.485

// PBM binding z-score value for `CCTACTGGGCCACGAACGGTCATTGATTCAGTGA` : -0.262

// PBM binding z-score value for `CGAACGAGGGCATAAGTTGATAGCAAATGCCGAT` : 0.799

// PBM binding z-score value for `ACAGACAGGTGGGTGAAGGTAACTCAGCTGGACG` : -0.13

// PBM binding z-score value for `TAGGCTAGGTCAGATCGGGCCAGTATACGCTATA` : -0.0664

// PBM binding z-score value for `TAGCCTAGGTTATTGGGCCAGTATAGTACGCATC` : -0.136

// PBM binding z-score value for `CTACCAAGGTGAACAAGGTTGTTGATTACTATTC` : -0.199

---

Test system: RXRa DBDmut IVT, anti-RXR (DBD mutation: RXRa K156A/R161A, NR concentration 90 nM)
Assay: PBM binding z-score (relative to random genomic background probes); higher = stronger binding; sequences stand for … in GC…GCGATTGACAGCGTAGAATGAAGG
Metric Name: PBM binding z-score
Form field (numeric): enter value without unit.

Previously resolved entries follow.
{"Sequence Content": "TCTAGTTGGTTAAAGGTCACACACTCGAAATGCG", "Target Or Test System": "RXRa DBDmut IVT, anti-RXR (DBD mutation: RXRa K156A/R161A, NR concentration 90 nM)", "Reported Result": 2.21}
{"Sequence Content": "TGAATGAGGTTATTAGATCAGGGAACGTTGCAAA", "Target Or Test System": "RXRa DBDmut IVT, anti-RXR (DBD mutation: RXRa K156A/R161A, NR concentration 90 nM)", "Reported Result": 1.46}
{"Sequence Content": "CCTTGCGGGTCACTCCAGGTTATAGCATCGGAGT", "Target Or Test System": "RXRa DBDmut IVT, anti-RXR (DBD mutation: RXRa K156A/R161A, NR concentration 90 nM)", "Reported Result": 1.43}
{"Sequence Content": "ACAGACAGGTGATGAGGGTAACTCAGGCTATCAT", "Target Or Test System": "RXRa DBDmut IVT, anti-RXR (DBD mutation: RXRa K156A/R161A, NR concentration 90 nM)", "Reported Result": -0.49}
{"Sequence Content": "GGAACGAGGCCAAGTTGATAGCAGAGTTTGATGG", "Target Or Test System": "RXRa DBDmut IVT, anti-RXR (DBD mutation: RXRa K156A/R161A, NR concentration 90 nM)", "Reported Result": 1.18}
{"Sequence Content": "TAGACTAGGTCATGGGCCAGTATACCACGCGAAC", "Target Or Test System": "RXRa DBDmut IVT, anti-RXR (DBD mutation: RXRa K156A/R161A, NR concentration 90 nM)", "Reported Result": -0.0129}
{"Sequence Content": "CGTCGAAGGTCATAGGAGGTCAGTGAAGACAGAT", "Target Or Test System": "RXRa DBDmut IVT, anti-RXR (DBD mutation: RXRa K156A/R161A, NR concentration 90 nM)", "Reported Result": 3}
{"Sequence Content": "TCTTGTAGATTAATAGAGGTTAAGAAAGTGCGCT", "Target Or Test System": "RXRa DBDmut IVT, anti-RXR (DBD mutation: RXRa K156A/R161A, NR concentration 90 nM)", "Reported Result": 1.23}
{"Sequence Content": "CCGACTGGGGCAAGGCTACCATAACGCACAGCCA", "Target Or Test System": "RXRa DBDmut IVT, anti-RXR (DBD mutation: RXRa K156A/R161A, NR concentration 90 nM)", "Reported Result": -0.842}
{"Sequence Content": "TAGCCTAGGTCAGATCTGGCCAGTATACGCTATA", "Target Or Test System": "RXRa DBDmut IVT, anti-RXR (DBD mutation: RXRa K156A/R161A, NR concentration 90 nM)", "Reported Result": -0.24}

// PBM binding z-score value for `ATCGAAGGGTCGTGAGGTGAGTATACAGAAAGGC` : 0.87

// PBM binding z-score value for `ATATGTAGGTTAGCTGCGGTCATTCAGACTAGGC` : 0.343

// PBM binding z-score value for `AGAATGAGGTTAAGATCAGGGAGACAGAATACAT` : 1.06

// PBM binding z-score value for `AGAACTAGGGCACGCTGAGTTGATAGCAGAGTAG` : -0.125

// PBM binding z-score value for `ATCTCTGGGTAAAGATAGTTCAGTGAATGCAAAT` : -0.0472

// PBM binding z-score value for `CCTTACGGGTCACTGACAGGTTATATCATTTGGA` : 1.64

// PBM binding z-score value for `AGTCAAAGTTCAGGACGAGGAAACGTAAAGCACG` : 2.81

// PBM binding z-score value for `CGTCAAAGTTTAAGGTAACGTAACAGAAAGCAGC` : 1.29

// PBM binding z-score value for `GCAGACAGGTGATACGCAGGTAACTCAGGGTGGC` : -0.589

// PBM binding z-score value for `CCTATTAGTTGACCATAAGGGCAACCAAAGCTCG` : 0.788

// PBM binding z-score value for `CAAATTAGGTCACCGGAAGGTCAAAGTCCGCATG` : 2.34

// PBM binding z-score value for `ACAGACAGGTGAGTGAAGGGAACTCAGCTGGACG` : -0.777

// PBM binding z-score value for `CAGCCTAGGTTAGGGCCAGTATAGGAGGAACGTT` : -0.851

// PBM binding z-score value for `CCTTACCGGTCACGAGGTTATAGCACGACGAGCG` : 0.188

// PBM binding z-score value for `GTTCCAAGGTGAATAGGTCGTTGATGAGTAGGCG` : 0.23

// PBM binding z-score value for `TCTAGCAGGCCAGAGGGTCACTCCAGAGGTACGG` : -0.234
